Data credit: ChEMBL document CHEMBL1123376

System: Rattus norvegicus
EXPERIMENT_DESCRIPTION: Evaluated in rat PCA (passive cutaneous anaphylaxis) test administered at 60 mg/kg ip and the inhibition of PCA due to inhibition of IgE mediated release was determined
Type: functional
MEASUREMENT_PARAMETERS: Rattus norvegicus, ip, route intraperitoneal
Can you tell me inhibition in vivo at 60 mg/kg for the items I'm about to list?

Give measured inhibition in vivo at 60 mg/kg for every item shown.
1. COc1cccc2c(=O)n(-c3nn[nH]n3)cnc12
2. Cc1cccc2ncn(-c3nn[nH]n3)c(=O)c12
3. O=CNc1ccccc1C(=O)Nc1nn[nH]n1

["44%", "80%", "89%"]

* * *

System: Rattus norvegicus
EXPERIMENT_DESCRIPTION: Evaluated in rat PCA (passive cutaneous anaphylaxis) test administered at 60 mg/kg ip and the inhibition of PCA due to inhibition of IgE mediated release was determined
Type: functional
MEASUREMENT_PARAMETERS: Rattus norvegicus, ip, route intraperitoneal
READOUT_KIND: inhibition in vivo at 60 mg/kg (%)
Answers are plain numbers, in %.

Give measured inhibition in vivo at 60 mg/kg for every item shown.
1. O=C([O-])c1cc(=O)c2c(OCC(O)COc3cccc4oc(C(=O)[O-])cc(=O)c34)cccc2o1.[Na+].[Na+] [CROMOLYN SODIUM]
2. O=c1c2ccccc2ncn1-c1nc[nH]n1
3. Cc1cccc2c(=O)n(-c3nn[nH]n3)cnc12

1: 100; 2: 75; 3: 64
